# Test system: IGROV-1
# test: Inhibitory dose required against IGROV human tumor cell lines
# Type: functional
# setup-conditions: read-out: ID50 (the source's name)
readout-name: IC50 (ng/mL)
Only the number, expressed in ng/mL, is required.

State measured IC50 of the compound CC[C@@]1(OC(=O)OCc2ccc(NC(=O)[C@H](CCCCN)NC(=O)[C@H](Cc3ccccc3)NC(=O)[C@@H](C)N)cc2)C(=O)OCc2c1cc1n(c2=O)Cc2cc3ccccc3nc2-1.Cl.Cl with IGROV-1.
20

Consider the compound CC[C@@]1(OC(=O)OCc2ccc(NC(=O)[C@H](CCCCN)NC(=O)[C@H](Cc3ccccc3)NC(=O)[C@@H](C)N)cc2)C(=O)OCc2c1cc1n(c2=O)Cc2cc3c(N)cccc3nc2-1.Cl.Cl.Cl tested on IGROV-1; state its IC50.
8
